Some molecules, each annotated with its measured Percent Effect.
- System: Wolbachia pipientis
- TEST DETAILS: Anti-Wolbachia Cell-Based Screen
- Format: functional
- Design: scale not given: in the data most compounds retested in dose-response had high values
- STATED CONDITIONS: 5 µM
In all, about 48,000 compounds went through this assay and about 13,000 (27%) showed an effect of 50% or more. Some of the results follow.
# output: bare number, implied unit %

Answered cases to consult:
Q: Please tell me: Percent Effect of Cn1c(NCC(O)c2ccc(F)cc2F)c(C#N)c(=O)n(C)c1=O (configuration not stated) , system Wolbachia pipientis?
Ans: -7.398

Q: What do you get for `COCc1cncc2c1CCN(C(=O)c1cscn1)C2` ?
Ans: 104.1

Q: Now consider `COCCN(Cc1coc(-c2cccc(Cl)c2)n1)C1CC1` and answer again.
Ans: 9.963

Q: Also need `Cc1occc1C(=O)N1CCCN(Cc2nccn2C)CC1` , thanks.
Ans: 92.51

Q: Then what about the molecule `Cc1cc(C[C@@H]2COC[C@@H]2NC(=O)CNC(=O)N(C)C)on1` ?
Ans: -9.814

Next:
Q: What Percent Effect appears in the records for this molecule with Wolbachia pipientis? Cc1ccc(CC(=O)N2Cc3nccn3CC(CN(C)C)C2)cc1.O=C(O)C(F)(F)F (configuration not stated)
Ans: 14

Q: And Cc1cccc(N2CC3(CCN(S(=O)(=O)c4ccccc4)C3)CC2=O)c1 (configuration not stated) ?
Ans: -6.441

Q: Please answer likewise for Cc1cc(C(=O)Nc2ccnc(OC3CCOC3)c2)c(C)o1 (configuration not stated)
Ans: -9.731

Q: Same for `O=C(c1cnccn1)N1CCc2c(COCC3CC3)cncc2C1`
Ans: -0.9982

Q: Queued: `Cc1ccc(-c2nc(CSCCC(=O)NC(N)=O)co2)cc1`
Ans: 98.78

Q: Same for `O=S(=O)(NCCSc1nccn1C1CC1)c1ccccc1`
Ans: 5.63

Q: Queued: `NC(=O)c1cccc(NC(=O)CSc2ccc3c(c2)CCC3)c1`
Ans: 10.83

Q: // query: N#Cc1cccnc1NCCNC(=O)N1CCCC(N2CCCC2)C1 (configuration not stated)
Ans: 15.17

Q: Try the molecule `COC(=O)c1ccc(CN(C(C)C)C(C)C)o1.Cl`
Ans: -10.72

Q: Entry `CN(C)CCOCc1cncc2c1CCN(C(=O)c1cscn1)C2` please
Ans: 84.03

Q: Now this one: `CCn1ccnc1CN(C)c1nc(-c2ccc(Cl)cc2)nc2c1CNC2`
Ans: -33.82

Q: Please answer likewise for CC(C)NC(=O)N1CCC2(C1)CN(c1ccsc1)C(=O)CN2C.O=C(O)C(F)(F)F (configuration not stated)
Ans: -13.82

Q: Try `CNC(=O)CS(=O)(=O)Cc1coc(-c2ccc(F)cc2)n1` next.
Ans: -9.885

Q: How about `O=C(NCCNc1cnccn1)C1CCN(C(=O)N2CCCC2)CC1` ?
Ans: 14.69

Q: Try this molecule next: `O=C(c1cccc(S(=O)(=O)NCCCc2ccco2)c1)N1CCOCC1`
Ans: 28.12

Q: Try the molecule `Cc1ccc(-c2nc(CCNC(=O)CCN3CCOC3=O)co2)cc1`
Ans: 4.701

###

Measured Percent Effect values are reported for all entries that follow.
- Test system: Wolbachia pipientis
- TEST DETAILS: Anti-Wolbachia Cell-Based Screen
- Assay type: functional
- Design: scale not given: in the data most compounds retested in dose-response had high values
- STATED CONDITIONS: 5 µM
The campaign covered roughly 48,000 compounds. About 13,000 (27%) showed an effect of 50% or more. Some of the results follow.
Record the value in %, omitting the unit from your answer.

# annotated cases, reported Percent Effect shown
Q: Recorded Percent Effect for Cc1ccc2c(c1)c(CNC(C)Cn1ccnc1)nn2C (stereo not given) , please?
Ans: 4.186

Q: Same read-out for `COc1cc2c(c(OC)c1OC)CCN(CCn1cncn1)CC2` ?
Ans: 66.41

Q: Likewise for `Cc1oc(C(=O)O)cc1S(=O)(=O)Nc1ccccc1F` ?
Ans: 96.87

Q: And for COc1ccccc1CCNC(=O)N(C)C(C)CS(C)(=O)=O (stereo not given) ?
Ans: -10.73

Q: Continue with `Cc1oc(C(=O)O)cc1S(=O)(=O)Nc1cc(Cl)ccc1F`
Ans: 4.903

Q: And for `CN(C1CCCC1)C(C)(C)C(=O)NCCS(C)(=O)=O` ?
Ans: 3.461

Q: Repeat for the following compound: `Cc1oc(C(=O)O)cc1S(=O)(=O)Nc1cc(Br)ccc1F`
Ans: 94.97

Q: Here is the next compound: `CN(C)C(=O)CNS(=O)(=O)c1cc(Br)ccc1F`
Ans: 0.0286

Q: Similarly, CC(CC#N)N(C)Cc1ccccc1F (stereo not given) ?
Ans: 11.31

Q: Another compound: COc1ccccc1Cc1cc(O)nc(NC(C)CN(C)C)n1 (stereo not given)
Ans: 91.33

Continuing:
Q: # query: Percent Effect of entry `CC(C)(C)CN[C@@H]1CO[C@H](CNC(=O)C2CCCC2)[C@H]1O`
Ans: -14.33

Q: Let us now turn to `CC(C)(C)c1cnc(CN2CCCS(=O)(=O)CC2)o1`
Ans: -0.7322

Q: Can you check `O=C(O)c1ccc(S(=O)(=O)Nc2ccccc2CC(F)(F)F)c(F)c1` next?
Ans: -4.395

Q: // same read-out, input: Cc1cc(C(F)(F)F)nc(CCNC(C)Cn2nc(C)cc2C)n1 (stereo not given)
Ans: 119.2

Q: Record: CC(Cn1ccnc1)NS(=O)(=O)Cc1ccc(F)cc1 (stereo not given)
Ans: -3.68

Q: Another compound: Cc1cc(C(F)(F)F)nc(CCNC(C)Cn2ccnc2)n1 (stereo not given)
Ans: 111.3

Q: What do we get for `Cc1oc(C(=O)O)cc1S(=O)(=O)Nc1cccc(-c2nccs2)c1` ?
Ans: 2.887

Q: Cc1cc(C)n(CC(C)NCCn2nc(C)c(Cl)c2C)n1 (stereo not given) ?
Ans: 9.985

Q: Lookup `Cc1oc(C(=O)O)cc1S(=O)(=O)Nc1ccc(Cl)cc1F`
Ans: 103.2

Q: Consider next the compound O=C(NC1CCCN(c2ccc(OC(F)F)cc2)C1)c1ccon1 (stereo not given) in the same way.
Ans: 12.05

Q: Try the compound CC(Cn1cncn1)NCCN1CCc2ccccc2C1 (stereo not given)
Ans: 12.32

Q: Check CC(NC(=O)CSCC#N)c1ccccc1 (stereo not given) too.
Ans: 5.295

Q: What do you get for `Cc1cccc(NS(=O)(=O)c2cc(C(=O)O)oc2C)c1Cl` ?
Ans: -7.287

Q: Do the same for `Cc1oc(C(=O)O)cc1S(=O)(=O)Nc1ccc(Cl)c(F)c1` please
Ans: -4.199

Q: Now try `COc1ccccc1CC(C)(C)NC(=O)CN(C)C(C)C` .
Ans: 3.69

###

- Test system: Wolbachia pipientis
- TEST DETAILS: Anti-Wolbachia Cell-Based Screen
- Type: functional
- Set-up: scale not given: in the data most compounds retested in dose-response had high values
- STATED CONDITIONS: 5 µM
The campaign covered roughly 48,000 compounds. About 13,000 (27%) showed an effect of 50% or more. The list shows a part of the results.
Percent Effect vs 90%: less than gives TRUE; not less than gives FALSE.

Please review the entries below; each comes with its answer.
Q: Check if Percent Effect falls below 90% for `CS(=O)(=O)Nc1ccc([C@H]2OCC(=O)N[C@@H]2CO)cc1` .
Ans: TRUE

Q: Proceed to `COc1ccccc1[C@@H]1CN(Cc2cnn(C)c2C)C[C@H]1C(=O)O`
Ans: TRUE

Q: Try `CCN1CCNC(=O)C12CCN(C(=O)Cc1ccsc1)CC2` next.
Ans: FALSE

Q: # repeat for `Cc1n[nH]cc1CNC1CCN(c2ccccc2)CC1.Cl`
Ans: TRUE

Q: Also COc1ccccc1C1Cn2c(C)cnc2CN1Cc1ccc(C)nc1 (stereo unspecified) ?
Ans: FALSE

Q: Can you handle `COc1ccccc1[C@@H]1CN(Cc2cnc(N(C)C)nc2)C[C@H]1C(=O)O` next?
Ans: TRUE

Next:
Q: Confirm or reject: Percent Effect of `COCCN(C)C[C@@H]1CN(c2cc(C)nc3ccccc23)C[C@@H]1CO` lies strictly below 90%
Ans: TRUE

Q: And what about the molecule COc1ccccc1C1Cn2ccnc2CN1Cc1c[nH]nc1C (stereo unspecified) ?
Ans: FALSE

Q: Please give the result for `CCOCCN1CCN(CCCc2nnnn2-c2ccccc2)CC1` too.
Ans: TRUE

Q: Queued: `COc1ccccc1[C@@H]1CN(Cc2nccn2C)C[C@H]1C(=O)O`
Ans: TRUE

###

- Tested on: Wolbachia pipientis
- TEST DETAILS: Anti-Wolbachia Cell-Based Screen
- Assay type: functional
- Set-up: scale not given: in the data most compounds retested in dose-response had high values
- STATED CONDITIONS: 5 µM
The campaign covered roughly 48,000 compounds. About 13,000 (27%) showed an effect of 50% or more. Some of the results follow.
MEASURE NAME: Percent Effect (%)
Record the value in %, omitting the unit from your answer.

# annotated cases, reported Percent Effect shown
Q: So what Percent Effect did Cn1ccc(C(=O)NC2CCC23CCN(C(=O)c2cnccn2)CC3)c1 (stereo unspecified) get with Wolbachia pipientis?
Ans: 13.19

Q: Follow-up entry: COCCOc1ncccc1C(=O)N1CCCC1Cn1cc(C)cn1 (stereo unspecified)
Ans: 71.82

Q: Would you mind doing `O=C(CS(=O)(=O)Cc1cc(Cl)c2c(c1)OCO2)N1CCCCCC1` as well?
Ans: 135.5

Q: // next record Cn1ccc(C(=O)NC2CCC23CCN(Cc2cccnc2)CC3)c1.O=C(O)C(F)(F)F.O=C(O)C(F)(F)F (stereo unspecified)
Ans: 0.1855

Q: Consider next the molecule COCC(=O)N1CCC2(CCC2NC(=O)c2ccn(C)c2)CC1 (stereo unspecified) in the same way.
Ans: -13.3

Others:
Q: Please tell me: Percent Effect of COC(=O)CC1CCCCN1CC(=O)Nc1ccc(F)cc1Cl (stereo unspecified) , system Wolbachia pipientis?
Ans: 107.7

Q: What do we get for O=C(CN1CCCCC1C1OCCO1)Nc1ccc(F)c(F)c1 (stereo unspecified) ?
Ans: -7.301

Q: Further, for `CCOCc1ncn2c1CN(S(=O)(=O)c1ccc(C)cc1)CC2` ?
Ans: 1.086
